Listing of recorded CLhep predicted at 10 µM by entry.
Assay: Clearance in mouse liver microsomes at 10 uM after 60 mins by HPLC-MS/MS analysis
Format: ADME
MEASUREMENT_TYPE: CLhep predicted at 10 µM

1. C[C@@]1(O)CC[C@H]2[C@@H](CC[C@@H]3[C@@H]2CC[C@]2(C)[C@@H](C(=O)Cn4ncnn4)CC[C@@H]32)C1 = 33.8 mL/min/kg
2. C[C@@]1(O)CC[C@H]2[C@H](CC[C@@H]3[C@@H]2CC[C@]2(C)[C@@H](C(=O)Cn4cc5c(n4)CCCC5)CC[C@@H]32)C1 = 67.5 mL/min/kg
3. C[C@@]1(O)CC[C@H]2[C@H](CC[C@@H]3[C@@H]2CC[C@]2(C)[C@@H](C(=O)Cn4cc5ncccc5n4)CC[C@@H]32)C1 = 60 mL/min/kg

###

Some compounds, each annotated with its measured CLhep predicted at 10 µM.
Test: Clearance in human liver microsomes at 10 uM after 60 mins by HPLC-MS/MS analysis
Assay type: ADME
MEASUREMENT_TYPE: CLhep predicted at 10 µM (mL/min/kg)

1. C[C@@]1(O)CC[C@H]2[C@H](CC[C@@H]3[C@@H]2CC[C@]2(C)[C@@H](C(=O)Cn4nccn4)CC[C@@H]32)C1 = 3.17
2. C[C@@]1(O)CC[C@H]2[C@H](CC[C@@H]3[C@@H]2CC[C@]2(C)[C@@H](C(=O)Cn4cc5c(n4)CCCC5)CC[C@@H]32)C1 = 10.8
3. CC(=O)[C@H]1CC[C@H]2[C@@H]3CC[C@H]4C[C@H](O)CC[C@]4(C)[C@H]3CC[C@]12C = 8.33

###

Assay: Lipophilicity, log D of the compound at 20 uM at pH 7.4 by HPLC-MS/MS analysis
Format: physicochemical
Settings: buffer
Would you mind labelling by logD at 20 µM? At or over 5 is 1.0, under is 0.0.

1) C[C@@]1(O)CC[C@H]2[C@H](CC[C@@H]3[C@@H]2CC[C@]2(C)[C@@H](C(=O)Cn4cc5ccncc5n4)CC[C@@H]32)C1 = 0.0
2) CC(=O)[C@H]1CC[C@H]2[C@@H]3CC[C@H]4C[C@](C)(O)CC[C@]4(C)[C@H]3CC[C@]12C = 1.0
3) C[C@@]1(O)CC[C@H]2[C@H](CC[C@@H]3[C@@H]2CC[C@]2(C)[C@@H](C(=O)Cn4nccn4)CC[C@@H]32)C1 = 0.0
4) C[C@@]1(O)CC[C@H]2[C@H](CC[C@@H]3[C@@H]2CC[C@]2(C)[C@@H](C(=O)Cn4cc5c(n4)CCCC5)CC[C@@H]32)C1 = 1.0

###

Assay: Clearance in human liver microsomes at 10 uM after 60 mins by HPLC-MS/MS analysis
Type: ADME
MEASUREMENT_TYPE: CLhep predicted at 10 µM

1. C[C@@]1(O)CC[C@H]2[C@H](CC[C@@H]3[C@@H]2CC[C@]2(C)[C@@H](C(=O)Cn4cc5ncccc5n4)CC[C@@H]32)C1 = 4.5 mL/min/kg
2. CC(=O)[C@H]1CC[C@H]2[C@@H]3CC[C@H]4C[C@](C)(O)CC[C@@H]4[C@H]3CC[C@]12C = 8.33 mL/min/kg
3. CC(=O)[C@H]1CC[C@H]2[C@@H]3CC[C@H]4C[C@](C)(O)CC[C@]4(C)[C@H]3CC[C@]12C = 6.5 mL/min/kg
4. C[C@@]1(O)CC[C@H]2[C@H](CC[C@@H]3[C@@H]2CC[C@]2(C)[C@@H](C(=O)Cn4ncnn4)CC[C@@H]32)C1 = 5.5 mL/min/kg
5. C[C@@]1(O)CC[C@H]2[C@H](CC[C@@H]3[C@@H]2CC[C@]2(C)[C@@H](C(=O)Cn4cc5ccncc5n4)CC[C@@H]32)C1 = 4.5 mL/min/kg
6. C[C@@]1(O)CC[C@H]2[C@@H](CC[C@@H]3[C@@H]2CC[C@]2(C)[C@@H](C(=O)Cn4ncnn4)CC[C@@H]32)C1 = 1.67 mL/min/kg

meta.source: ChEMBL document CHEMBL3425450
